Origin of the recorded values: patent US10618964B2

molecular target: soluble IL-6R in cynomolgous plasma (cynomolgus monkey, UniProt A0A2K5WN54); experiment: ELISA 2, periplasmic extract; competitor IL-6; cyno plasma
measurement-type: OD450 ratio sample/blank
One number for each entry.

binder	measurement-type	result-value
IL6RPMP101F1 (VHH) VHH: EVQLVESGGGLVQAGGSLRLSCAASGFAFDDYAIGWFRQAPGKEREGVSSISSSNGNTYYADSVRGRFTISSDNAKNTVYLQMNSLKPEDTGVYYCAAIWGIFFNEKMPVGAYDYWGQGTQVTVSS	OD450 ratio sample/blank	0.829

Provide OD450 ratio sample/blank for all items below, preserving their order.
1. IL6RPMP120C10 (VHH) VHH: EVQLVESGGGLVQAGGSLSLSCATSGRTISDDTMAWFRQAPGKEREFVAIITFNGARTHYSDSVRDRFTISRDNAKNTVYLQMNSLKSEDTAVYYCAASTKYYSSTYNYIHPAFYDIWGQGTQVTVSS
2. IL6RPMP105C2 (VHH) VHH: EVQLVESGGGLVQAGGSLRLSCAASGSIFRINAMGWYRQAPGEQRELVAAAISGGSTNYADFVKGRFTISRDNAKNTVYLQMNSLKPEDTAVYYCNALVVSHNYSDYVPFPDDYWGQGTQVTVSS
3. IL6RPMP107H5 (VHH) VHH: EVPLVESGGGLVQAGGSLNLSCNASGDIGSINAMGWYRQAPGQQREWVAVITDTDSTIYPDSVKGRFAISRDGAKNTVHLRMSSLKPEDTAVYYCNAYQAGWGDYWGQGTQVTVSS

1: 0.0351; 2: 1.01; 3: 0.997
